Attribute: IC50
test: DNDI: Cytotoxicity in vitro, against rat skeletal myoblast (L-6) cells; details: L-6 cells (skeletal myoblasts), IC50

Here is how some compounds turned out for IC50.
- Compound: "CO/N=C(\\C)c1ccc(-n2ccnc2)c(NC(=O)c2cncc(-c3ccccc3)n2)c1"
  Result: "4.16 µM"
- Compound: "CC(C)N(C)CC(O)COc1ccc2cc(Br)ccc2c1 (stereo not given)"
  Result: "19.2 µM"
- Compound: "CO/N=C(\\C)c1ccc(-n2ccnc2)c(NC(=O)c2ccc(-c3ccccc3)nc2)c1"
  Result: "> 100 µM"
- Compound: "CCN(Cc1c[nH]cn1)c1ccc(-c2nc3ccccc3s2)cc1"
  Result: "36 µM"

Ask: What measured IC50 goes with `CO/N=C(\C)c1ccc(-n2ccnc2)c(NC(=O)c2cc(-c3ccccc3)cs2)c1` ?
Reply: > 100 µM
